B1: Osa-1-4 twister ribozyme (parent)
chain: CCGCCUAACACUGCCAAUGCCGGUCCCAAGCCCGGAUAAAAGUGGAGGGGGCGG

Variants of: B1
Experiment: self-cleavage, relative activity (ratio to wild type); higher = more cleavage; co-transcriptional
MEASUREMENT_LABEL: self-cleavage
Number, no unit, nothing else.

Known self-cleavage results, listed for orientation:
[
  {
    "VARIANT_STRING": "A16U G30A",
    "self-cleavage": 0.03
  },
  {
    "VARIANT_STRING": "A41G A7C",
    "self-cleavage": 0.05
  },
  {
    "VARIANT_STRING": "C25G G42A",
    "self-cleavage": 0.09
  },
  {
    "VARIANT_STRING": "A40C C11U",
    "self-cleavage": 0.07
  },
  {
    "VARIANT_STRING": "A7C G23A",
    "self-cleavage": 0.05
  }
]

Using the record for A39G A41G , report its self-cleavage.
0.46

Using the record for C20A G49U , report its self-cleavage.
0.16

Using the record for C26U G34U , report its self-cleavage.
0.83

Using the record for A17G C27U , report its self-cleavage.
0.29

Using the record for A10C A41C , report its self-cleavage.
0.05

Using the record for C27A G23A , report its self-cleavage.
0.06

Recorded values, source the RNAGym collection of RNA variant scans (doi:10.1002/anie.201605470).
